Please go through the items and note down their fraction ligated.
B1: minF1; the commonest letter at each place (parent)
chain: GAGACCGCAACTGAAAAGTTGTTATCAGAAATGGATGGGTTGAATTTCTGCACGTAGAAGCAAAAGGC

Variants of: B1
Assay: fraction ligated after 30 min (ligated reads / total reads); higher = more ligase activity
Settings: with F1*subA RNA substrate (template-directed ligation), 42 °C
One number for each entry.

Guide cases for fraction ligated, answers given:
INSERT INTO results (monomer_sequence, test_readout, measured) VALUES
  ('GAGACCGCAACTGAAAAGTTGTTAACAGAACTGGATGGGTTGAATTTCTGCACGTAGAAGCAAAAGGC [T25A A31C]', 'fraction ligated', 0.00883),
  ('GAGACCGCAACTGAAAAGTTGTTATCACACATGGATGGGTTGAATTTCTGCACGTAGAAGCAAAAGGC [G28C A30C]', 'fraction ligated', 0.817),
  ('GAGACCGCAACTGAAAAGTTGTTATCAGAAATGGATGGGTTGAGTTTCTGCACGTAGAAGCAAAAGGC [A44G]', 'fraction ligated', 0.79),
  ('GAGACCGCAACTGAAAAGTTGTTATTAGAAATTGATGGGTTGAATTTCTGCACGTAGAAGCAAAAGGC [C26T G33T]', 'fraction ligated', 0.206),
  ('GAGACCGCAACTGAAAAGTTGTTATCAGAAATGGATGGGTTTTTTTTCTGCACGTAGAAGCAAAAGGC [G42T A43T A44T]', 'fraction ligated', 0.00186);

Go through the list and state fraction ligated for each entry.
1. GAGACCGCAACTGAAAAGTTGTTATCAGAATTGAATGGGTTGAATTTCTGCACGTAGAAGCAAAAGGC [A31T G34A]
2. GAGACCGCAACTGAAAAGTTGTTATCCAAAATGGATGGGTTGAATTTCTGCACGTAGAAGCAAAAGGC [A27C G28A]
3. GAGACCGCAACTGAAAAGTTGTTATCAGAAATGTAGGGGTTGAATTTCTGCACGTAGAAGCAAAAGGC [G34T T36G]
4. GAGACCGCAACTGAAAAGTTGTTATCAGAAACAGATGGGTTGAATTTCTGCACGTAGAAGCAAAAGGC [T32C G33A]
5. GAGACCGCAACTGAAAAGTTGTTATCAGATTTGGATGGGTTGAATTTCTGCACGTAGAAGCAAAAGGC [A30T A31T]

Response:
0.071
0.503
0.00275
0.0169
0.818

Would you mind listing fraction ligated for each of the following variants?
1. GAGACCGCAACTGAAAAGTTGTTATCCGAAATGGATGGGTTGAGTTTCTGCACGTAGAAGCAAAAGGC [A27C A44G]
2. GAGACCGCAACTGAAAAGTTGTTAGCATAAATGGATGGGTTGAATTTCTGCACGTAGAAGCAAAAGGC [T25G G28T]
3. GAGACCGCAACTGAAAAGTTGTTATCAGAAATCGATAGGTTGAATTTCTGCACGTAGAAGCAAAAGGC [G33C G37A]

Response:
0.38
0.0241
0.00724

// data source = the supplement of paper PMC6755084
